- Test system: T2 cells
- Assay protocol: Cytotoxicity of peptide-stimulated blood cells (CTL) against T2 cells sensitized by synthesized peptides, Cr51 release
- Assay type: cell-based, human
- Condition summary: Ratio of CTL against target cell 10:1; T2 cells sensitized with 100 μg/ml peptide
No end group written: not given here.
For each entry below, report its Specific cytotoxicity by CTL (%) value.
One number for each entry, in %.

Previously resolved entries follow.
EIRLKVFVL [×7, EIRLKVFVL] ... 19
CLFKDWEEL (Hepatitis B virus) [×6, peptide derived from HBV X protein, position 115-123] ... 16
HLSLRGLFV [×3, HLSLRGLFV] ... 17

The following sequences each have a reported value; give each one's Specific cytotoxicity by CTL (%).
1. TLPSPSSSA [×2, TLPSPSSSA]
2. AMSTTDLEA [×5, AMSTTDLEA]
3. VLCLRPVGA [×1, VLCLRPVGA]

10
24
11

====

- Tested on: T2 cells
- Assay protocol: Cytotoxicity of peptide-stimulated blood cells (CTL) against T2 cells sensitized by synthesized peptides, Cr51 release
- Type: cell-based, human
- Condition summary: Ratio of CTL against target cell 25:1; T2 cells sensitized with 100 μg/ml peptide
No end group written: not given here.
Classify by measured Specific cytotoxicity by CTL (%): criterion met if it is equal to or exceeds 20%, criterion not met if it is smaller.

Reference set (4 entries):
CLFKDWEEL (Hepatitis B virus) [×6, peptide derived from HBV X protein, position 115-123] ... criterion met
EIRLKVFVL [×7, EIRLKVFVL] ... criterion met
AMSTTDLEA [×5, AMSTTDLEA] ... criterion met
VLCLRPVGA [×1, VLCLRPVGA] ... criterion not met

Test whether the sequence TLPSPSSSA [×2, TLPSPSSSA] records Specific cytotoxicity by CTL (%) of 20% or higher.
criterion not met
